method-summary: APR_HepG2_MitoMass_72hr: Apredica 72-hour HepG2 Assay for Mitochondrial Mass (AID 2282924);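 note: MitoTracker Red CMXRos stain intensity per cell imaged as mitochondrial mass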
condition: high-content imaging, actives raise or lower the signal
Procedure: APR_HepG2_72hr is a cell-based, multiplexed-readout assay that uses HepG2, a human liver cell line, with measurements taken at 72 hours after chemical dosing in a 384-well plate.APR_HepG2_MitoMass_72hr is one of 10 assay component(s) measured or calculated from the APR_HepG2_72hr assay. […] This assay endpoint, APR_HepG2_MitoMass_72hr, was analyzed with bidirectional fitting relative to DMSO as the negative control and baseline of activity. […]
Active and inactive are the calls of the source. Rule for the calls: active = hit-call score of the fitted dose curve at least 0.9, where 1 is the maximum; inactive = score below 0.9.
Outcomes: 1.0 for active, 0.0 for inactive

{"columns": ["molecule", "class-label"],
 "data": [
  ["COP(=O)(OC)O/C(C)=C/C(=O)N(C)C", 0.0],
  ["Cc1c(COC(=O)[C@@H]2[C@H](/C=C(\\Cl)C(F)(F)F)C2(C)C)cccc1-c1ccccc1", 0.0],
  ["CC(C)=CC1C(C(=O)OCc2coc(Cc3ccccc3)c2)C1(C)C (stereo not drawn)", 0.0],
  ["CC1(C)C(C=C(Cl)Cl)C1C(=O)OC(C#N)c1cccc(Oc2ccccc2)c1 (stereo not drawn)", 0.0],
  ["COc1cc(OC)nc(NC(=O)NS(=O)(=O)c2ncccc2OCC(F)(F)F)n1", 0.0],
  ["CCOC(=O)C(C)OC(=O)c1cc(Oc2ccc(C(F)(F)F)cc2Cl)ccc1[N+](=O)[O-] (stereo not drawn)", 0.0],
  ["CN/C(=N\\[N+](=O)[O-])NCc1cnc(Cl)s1", 0.0],
  ["N#Cc1c[nH]cc1-c1cccc2c1OC(F)(F)O2", 1.0],
  ["CCCCC(C#N)(Cn1cncn1)c1ccc(Cl)cc1 (stereo not drawn)", 0.0],
  ["CNC(=O)Oc1cccc2ccccc12", 1.0],
  ["CC(C)NC(=O)N1CC(=O)N(c2cc(Cl)cc(Cl)c2)C1=O", 0.0],
  ["CCOc1cc(C(C)(C)C)ccc1C1COC(c2c(F)cccc2F)=N1 (stereo not drawn)", 0.0],
  ["C=C(C)CN(CC)c1c([N+](=O)[O-])cc(C(F)(F)F)cc1[N+](=O)[O-]", 0.0],
  ["N#Cc1c(Cl)cccc1Cl", 0.0],
  ["CC(C)C1(C)N=C(c2ncccc2C(=O)O)NC1=O (stereo not drawn)", 0.0],
  ["Cn1c(-c2ccccc2)cc(-c2ccccc2)[n+]1C", 0.0],
  ["CNC(=O)N(C)c1nnc(C(C)(C)C)s1", 0.0],
  ["CCCN(CC)CC1COC2(CCC(C(C)(C)C)CC2)O1 (stereo not drawn)", 0.0],
  ["COP(=S)(OC)Oc1ccc([N+](=O)[O-])c(C)c1", 0.0],
  ["CC(C)N1C(=O)c2ccccc2NS1(=O)=O", 0.0],
  ["COC(=O)NC(=S)Nc1ccccc1NC(=S)NC(=O)OC", 1.0],
  ["COC(=O)N(C(=O)N1CO[C@@]2(C(=O)OC)Cc3cc(Cl)ccc3C2=N1)c1ccc(OC(F)(F)F)cc1", 0.0],
  ["CS(=O)(=O)c1ccc(C(=O)C2C(=O)CCCC2=O)c([N+](=O)[O-])c1", 0.0]
]}

* * *

tested-target: human Thyroid Receptor Alpha (TRa), THRA (gene 7067)
method-summary: NVS_NR_hTRa_Antagonist: NovaScreen (NVS) Nuclear Receptor Binding Assay for human Thyroid Receptor Alpha Antagonism (TRa) (AID 2283362);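 note: activity is loss of signal relative to DMSO baseline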
Inconclusive results are not listed. Activity calls are given as the source filed them. The calls were made as follows: active = hit-call score of the fitted dose curve at least 0.9, where 1 is the maximum; inconclusive = response in the unintended direction; inactive = score below 0.9.
Outcomes: active, inactive

{"columns": ["compound", "class-label"],
 "data": [
  ["CCN(CC)c1nc(C)cc(OP(=S)(OC)OC)n1", "inactive"],
  ["OC(c1ccc(Cl)cc1)(c1ccc(Cl)cc1)C(Cl)(Cl)Cl", "inactive"],
  ["CCOC(=O)C(C)OC(=O)c1cc(Oc2ccc(C(F)(F)F)cc2Cl)ccc1[N+](=O)[O-] (centres undefined)", "inactive"],
  ["CCCCC(O)(Cn1cncn1)c1ccc(Cl)cc1Cl (centres undefined)", "inactive"],
  ["Cc1cnc(C2=NC(C)(C(C)C)C(=O)N2)c(C(=O)O)c1 (centres undefined)", "inactive"],
  ["N#Cc1c(Cl)cccc1Cl", "inactive"],
  ["CN=C=S", "inactive"],
  ["Clc1nc(Cl)nc(Nc2ccccc2Cl)n1", "active"],
  ["CC(C)(C)C(=O)C(Oc1ccc(Cl)cc1)n1cncn1 (centres undefined)", "inactive"]
]}

All figures here come from PubChem BioAssay (EPA / NIEHS).
